Test system: Dirofilaria immitis
experiment: D. immitis L3 infection of NSG mice (FR3 Missouri strain or strain not stated), treatment, recovery and count of worms at necropsy
Assay type: in vivo
test-conditions: Table 9; group mean; NSG mice, 50 Di L3; 1 mg/kg on Days 1, 15, and 30; recovery Days 41 to 43
parameter: Mean % Rec (%)
Hi! Could you send only the number? It should be in %, unit omitted.

Using known records, supply Mean % Rec for CC(C)C[C@H]1C(=O)O[C@H](Cc2ccc(N3CCOCC3)cc2)C(=O)N(C)[C@@H](CC(C)C)C(=O)O[C@H](C)C(=O)N(C)[C@@H](CC(C)C)C(=O)O[C@H](Cc2ccc(N3CCOCC3)cc2)C(=O)N(C)[C@@H](CC(C)C)C(=O)O[C@H](C)C(=O)N1C [EMO, emodepside]
22

Using known records, supply Mean % Rec for `C[C@H]1OC(=O)[C@H](CC(C)(C)C)N(C)C(=O)[C@@H](Cc2ccc(C3CCOCC3)cc2)OC(=O)[C@H](CC(C)(C)F)N(C)C(=O)[C@@H](C)OC(=O)[C@H](CC(C)(C)C)N(C)C(=O)[C@@H](Cc2ccc(C3CCOCC3)cc2)OC(=O)[C@H](CC(C)(C)F)N(C)C1=O`
25

Using known records, supply Mean % Rec for `CC(C)C[C@H]1C(=O)O[C@H](C)C(=O)N(C)[C@@H](CC(C)(C)F)C(=O)O[C@H](Cc2ccc(C3CCOCC3)cc2)C(=O)N(C)[C@@H](CC(C)C)C(=O)O[C@H](C)C(=O)N(C)[C@@H](CC(C)(C)F)C(=O)O[C@H](Cc2ccc(C3CCOCC3)cc2)C(=O)N1C`
9

Using known records, supply Mean % Rec for `COC(=O)Nc1nc2ccc(OS(=O)(=O)c3ccc(F)cc3)cc2[nH]1`
33

Origin of values: patent US20200011856A1
